Target: myostatin (Homo sapiens, UniProt O14793)
Construct: To produce mature myostatin, the pooled promyostatin was enzymatically cleaved between the propeptide and mature myostatin C terminal; made in house; host or cells: E. coli K-12 strain 2596 (ATCC # 202174)
Sequence (O14793 267-375): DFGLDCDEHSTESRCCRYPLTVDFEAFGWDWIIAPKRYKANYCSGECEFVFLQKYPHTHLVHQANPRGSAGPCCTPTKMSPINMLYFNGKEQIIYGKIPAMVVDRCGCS
Assay: C2C12 pMARE-luc cell based myostatin activity assay
Settings: affinity matured peptibodies; a range of values is given
readout kind: IC50 (nM)
Unit nM implied. Number only.

Here are 4 substances together with their reported answers.
mTN8-19-6 (GVNQGQCTRWRWMCPPNGWE): 17.3
mTN8-19-11 (IYPHDQCTRWPWMCPPQPYP): 28.7
mTN8-19-12 (SYWQGQCTRWPWMCPPQWRG): 980
mL20-4 (MQHDMSMLYGLVELLESLGHQI): 160

Could you now look at the following substance, please?
(Q) Entry mTN8-19-4 (MITQGQCTRWPWMCPPQPSG) has what IC50?
(A) 16.7

###

Molecular target: myostatin (Homo sapiens)
Construct: To produce mature myostatin, the pooled promyostatin was enzymatically cleaved between the propeptide and mature myostatin C terminal; made in house; host or cells: E. coli K-12 strain 2596 (ATCC # 202174)
Sequence (O14793 267-375): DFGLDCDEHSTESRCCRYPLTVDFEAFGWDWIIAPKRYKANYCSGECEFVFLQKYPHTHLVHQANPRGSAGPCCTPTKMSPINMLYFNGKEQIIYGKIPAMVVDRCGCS
Assay: C2C12 pMARE-luc cell based myostatin activity assay
Settings: affinity matured peptibodies; a range of values is given
Entries and their measured IC50 follow.
Unit nM implied. Number only.

Here are 8 substances together with their reported answers.
mTN8-19-29 (TLVQGHCTRWPWMCPPQRWV): 6.36
mTN8-19-28 (SGPQGHCTRWPWMCAPQGWF): 4.39
mL15-7 (QVDSLQQVLLWLEHKLALGPQV): 32.8
mTN8-19-13 (MWQQGHCTRWPWMCPPQGWG): 20
mL15-9 (QIEMLESLLDLLRDMVPMSNAF): 354
mTN8-19-23 (PGAHDHCTRWPWMCPPQSRY): 6.58
mTN8-19-16 (YQTQGLCTRWPWMCPPQSQR): 4.65
mL20-2 (TQRDMSMLDGLLEVLDQLRQQR): 123

(Q) Entry mL20-3 (TSRDMSLLWELLEELDRLGHQR) has what IC50?
(A) 158

###

Entries and their measured pIC50 follow.
Target: myostatin (Homo sapiens, UniProt O14793)
Construct: To produce mature myostatin, the pooled promyostatin was enzymatically cleaved between the propeptide and mature myostatin C terminal; made in house; host or cells: E. coli K-12 strain 2596 (ATCC # 202174)
Sequence (O14793 267-375): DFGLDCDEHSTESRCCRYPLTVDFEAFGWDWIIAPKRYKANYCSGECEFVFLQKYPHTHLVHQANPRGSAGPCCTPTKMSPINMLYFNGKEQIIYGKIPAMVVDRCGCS
Experiment: C2C12 pMARE-luc cell based myostatin activity assay
Settings: affinity matured peptibodies; a range of values is given
pIC50: −log10 of the molar value.

Here are 2 substances together with their reported answers.
mTN8-19-24 (VAEEWHCRRWPWMCPPQDWR): 8.53 to 8.78
mTN8-19-10 (VVTQGHCTLWPWMCPPQRWR): 8.13 to 8.28

(Q) Entry mTN8-19-9 (TQTHAQCTRWPWMCPPQWEG) has what pIC50?
(A) 7.64 to 7.73

(Q) // next record mTN8-19-27 (ADTQGHCTRWPWMCPPQHWF)
(A) 8.31 to 8.32

(Q) // next record mTN8-19-5 (AGAQEHCTRWPWMCAPNDWI)
(A) 8.11 to 8.46

(Q) // next record mTN8-19-34 (IPAHGHCTRWPWMCPPQRWR)
(A) 8.30
